The measurements presented in this section are drawn from PubChem BioAssay.

methodDescription: MM1S myeloma cell viability, profiling panel, resazurin fluorescence, basal, 24 h, PK04 Diversity Set (AID 1174);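 also: MM1S multiple myeloma cell line; test concentration not given here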
testConditions: higher = more signal, called active from +8 up or from −8 down
// z-score lookup, one value per entry
API note: the answer field is a bare number with no unit suffix.

COC(=O)[C@@]1(Cc2ccc(OC)cc2)[C@H]2c3cc(C(=O)N4CCCC4)n(Cc4cc(F)c(F)c(F)c4)c3C[C@H]2CN1C(=O)c1ccccc1 :: -2.23
C=C(/C(=C/C[C@H](OC(=O)c1ccncc1)c1ccc(OCCO)cc1)c1cnc2ccccc2c1)C(C)C :: -0.777
CC(C)[Si]1(C(C)C)O[C@@H](c2ccccc2)c2cc(C3CC3)nc(-c3ccccc3)c21 :: 0.656
CC(C)(C)OC(=O)CC[C@]1(C(=O)NCc2ccccc2)N=C(c2ccc(OCCCO)cc2)O[C@H]1c1ccccc1 :: -0.768
COCCOC(=O)N1C(=O)[C@@]2(c3cc(C#CC4(O)CCCCCC4)ccc31)[C@H](C(=O)N1CCN(c3ncccn3)CC1)[C@H]1C(=O)O[C@H](c3ccccc3)[C@H](c3ccccc3)N1[C@@H]2c1ccc(OCCO)cc1 :: 0.712

Query (compound): C[C@@H](c1ccccc1)N1C(=O)[C@H]2[C@H]3[C@H](O)[C@H](O)CC(=NNC(=O)OCc4ccccc4)[C@H]3CC[C@H]2C1=O ; field requested: z-score -0.139

Same question for CCOC(=O)CCN1C(=O)[C@H]2[C@H]3[C@H](O)[C@H](O)CC(=NNC(=O)OCc4ccc(OC)cc4)[C@@H]3CC[C@H]2C1=O please. -1.24

Next up: CCOc1ccc(N2C(=O)/C(=C/C=C/c3ccccc3OC)S(=O)(=O)C2c2cccc([N+](=O)[O-])c2)cc1 (stereo not given) -2.33

How about C=C(CCCC)C(=O)CC[C@@H](OC(C)=O)c1cccc(OCCO)c1 ? -1.01

Item: CC(C)=CCCC(C)=CCON=C1[C@H]2CCn3c(=O)n(Cc4cc5c(cc4Cl)OCO5)c(=O)n3[C@H]2[C@H](O)[C@@H]2O[C@H]12 -0.738

What about this compound? CC(C)OC(=O)C=C1C[C@@H](c2ccc(C#N)cc2)O[C@@H](c2ccc(C#N)cc2)O1 -0.793

Repeat for the following compound: CC(C)NC(=O)[C@@H]1c2ccccc2C(=O)N(CC23CC4CC(CC(C4)C2)C3)[C@H]1c1ccc(CO)cc1 0.955

###

Reported composite z-score values for the following molecules.
methodDescription: small-molecule microarray binders of probe aCHRDL2, primary screen, biochemical, biotinylated probe, 635/667 nm fluorescence (AID 1100)
testConditions: higher = more signal
API doc: respond with a numeric literal and nothing else, no unit.

Illustrative cases are given below, each with its answer.
Cc1cc2c(nc1C)CCCN2CC(C)ON=C1[C@H]2CCn3c(=O)n(-c4ccccc4)c(=O)n3[C@H]2[C@H](O)[C@@H]2O[C@H]12 (some centres not stated) :: -0.499
CCCNC(=O)OC[C@H]1O[C@H](CCON=C2[C@H]3CCn4c(=O)n(-c5ccccc5)c(=O)n4[C@H]3[C@H](O)[C@@H]3O[C@H]23)C=C[C@@H]1Oc1ccc(OC)cc1 :: -0.182
COc1ccc([Si](C)(C)[C@@H]2[C@@H](CC(=O)N3CCC[C@H]3CO)O[C@]3(C(=O)N(Cc4cccc(N5CCC5=O)c4)c4ccccc43)[C@H]2C)cc1 :: 0.363

Could you share which composite z-score value was measured for C=CC[C@@H]1C=C[C@H](ON=C2c3cc(OC)ccc3O[C@H](c3cccc(OC)c3)[C@H]2O)[C@@H](CO)O1 ? -0.626

Next up: CC(C)N1CC=CC23O[C@@H]4C=CCCOC(=O)C4[C@H]2C(=O)N(CCCCCCO)[C@@H]3C1=O (some centres not stated) 0.587

Again, but for O=C1CCCC=C1C(O)CCOCc1ccccc1 (configuration not stated) -0.513

Further, for NCCCCCNC(=O)[C@@H]1C[C@@H]2C(=O)N3CCC[C@H]3C(=O)N2[C@@H]1c1cccc(OCCO)c1 ? 0.948
